- experimental details: yeast display, Sf9 membrane polyspecificity reagent, FACS + sequencing; frameworks hold sequencing errors
observation type: polyreactivity (PSR sort gate)

Example results:
Query block: Using the record for "QVQLVESGGGLVQAGGSLRLSCASSGYTLRPNGKGWYRQAPGKERELVAAISSGGSTYYADSVKGRFTISRDNAKNTVYLQMNSLKPEDTAVYYCAAEYWYDYWGQGTQVTVSS" , state its measured polyreactivity (PSR sort gate).
Result block: low polyreactivity

Query block: Using the record for "QVQLEESGGCLVQAGGSLRLSCAASGRIITSNDMGWYRQAPGKERELVAAISKSGGRTYYADSVKGRFTISRDNAKNTVYLQMNSLKPEDTAVYYCAKDNYWGQGTQVTVSS" , state its measured polyreactivity (PSR sort gate).
Result block: high polyreactivity

Query block: Using the record for "QVQLVESGGGLVQAGGSLRISCAASGIIFRLNAMGWYRQAPGKERELVAAIRRRGGSTYNADSVKGRFTISRHNAKNTVYLQMNSLKPEDTAVYYGAKDPHGSDFGYWGQGTQVTVSS" , state its measured polyreactivity (PSR sort gate).
Result block: low polyreactivity

Query block: Using the record for "QVQLVESGGGLVQAGGSLRLSCAASGFIFQYYAMGWYRQAPGKERELVAAIRISGGSTYYADSVKGRFTSSRDNAKNTVYLQMNSLKPEDTAVYYCAARQIITKFYTSNGVSSYYWGQGTQVTVSS" , state its measured polyreactivity (PSR sort gate).
Result block: high polyreactivity

Now, please, on to the next sequence.
Query block: Using the record for "QVQLVESGGGLVQAGGSLRLSCAASGRIFSQNAMGWYRQAPGKERELVAAISGGSTNYADSVKGRFTISRDNAKNTVYLQMNSLKPEDTAVYYCAVRWYFYHRSVEYDYWGQGTQVTVSS" , state its measured polyreactivity (PSR sort gate).
Result block: low polyreactivity
